Tested Target: alpha-1B adrenoceptor (Homo sapiens)
Construct: expressed in transfected cells; host or cells: CHO-K1
Sequence (P35368 whole entry): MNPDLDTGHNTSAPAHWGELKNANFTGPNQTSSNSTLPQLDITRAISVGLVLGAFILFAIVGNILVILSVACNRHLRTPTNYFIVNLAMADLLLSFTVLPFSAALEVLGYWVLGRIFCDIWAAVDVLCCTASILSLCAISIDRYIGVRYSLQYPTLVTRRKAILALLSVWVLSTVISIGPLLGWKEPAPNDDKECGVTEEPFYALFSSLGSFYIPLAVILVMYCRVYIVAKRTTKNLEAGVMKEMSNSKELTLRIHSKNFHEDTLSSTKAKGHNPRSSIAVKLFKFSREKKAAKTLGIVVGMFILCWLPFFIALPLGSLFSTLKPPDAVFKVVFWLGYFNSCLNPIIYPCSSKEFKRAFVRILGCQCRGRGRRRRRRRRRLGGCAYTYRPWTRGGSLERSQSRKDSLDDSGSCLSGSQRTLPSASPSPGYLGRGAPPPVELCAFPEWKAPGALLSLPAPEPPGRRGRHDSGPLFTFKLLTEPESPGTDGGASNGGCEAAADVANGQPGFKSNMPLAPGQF
Assay Method Text: [3H]prazosin binding (alpha1-adrenoceptor) assay, alpha-1B
Recorded Conditions: membranes of transfected CHO-KI cells, read-out: affinity towards the alpha-1B adrenoceptor (pKi) (converted)
Measurement Label: Ki

[[record]]
compound = "COc1cc2[nH]c(N3CCn4c(cnc4-c4ccccc4)C3)nc(=O)c2cc1OC"
tested_target = "alpha-1B adrenoceptor (Homo sapiens)"
result = "0.832 nM"

[[record]]
compound = "COc1cc2[nH]c(N3CCc4cc(O)c(O)cc4C3C)nc(=O)c2cc1OC (centres unmarked)"
tested_target = "alpha-1B adrenoceptor (Homo sapiens)"
result = "955 nM"

[[record]]
compound = "COc1cc2nc(N3CCc4ccc(S(=O)(=O)N5CCOCC5)cc4C3)[nH]c(=O)c2cc1OC"
tested_target = "alpha-1B adrenoceptor (Homo sapiens)"
result = "63.1 nM"

[[record]]
compound = "COc1cc2nc(N3CCc4c(cccc4-c4cnccc4N)C3)[nH]c(=O)c2cc1OC"
tested_target = "alpha-1B adrenoceptor (Homo sapiens)"
result = "56.2 nM"

[[record]]
compound = "COc1cc2nc(N3CCc4c(ncnc4N4CCN(C)CC4)C3)[nH]c(=O)c2cc1OC"
tested_target = "alpha-1B adrenoceptor (Homo sapiens)"
result = "8.71 nM"

[[record]]
compound = "COc1cc2nc(N3CCc4c(ncn4-c4ccc5c(c4)OCO5)C3)[nH]c(=O)c2cc1OC"
tested_target = "alpha-1B adrenoceptor (Homo sapiens)"
result = "12.3 nM"

[[record]]
compound = "COc1cc2nc(N3CCc4ccc(N5CCCC5)cc4C3)[nH]c(=O)c2cc1OC"
tested_target = "alpha-1B adrenoceptor (Homo sapiens)"
result = "0.912 nM"

[[record]]
compound = "CCCCc1ncc2n1CCN(c1nc(=O)c3cc(OC)c(OC)cc3[nH]1)C2"
tested_target = "alpha-1B adrenoceptor (Homo sapiens)"
result = "3.09 nM"

[[record]]
compound = "COc1cc2[nH]c(N3CCc4c(cccc4N4CCOCC4)C3)nc(=O)c2cc1OC"
tested_target = "alpha-1B adrenoceptor (Homo sapiens)"
result = "39.8 nM"

[[record]]
compound = "COc1cc2[nH]c(N3CCc4c(ncn4C4CCCCC4)C3)nc(=O)c2cc1OC"
tested_target = "alpha-1B adrenoceptor (Homo sapiens)"
result = "7.59 nM"

[[record]]
compound = "COc1cc2c(cc1OC)CN(c1nc(=O)c3cc(OC)c(OC)cc3[nH]1)CC2"
tested_target = "alpha-1B adrenoceptor (Homo sapiens)"
result = "0.759 nM"

[[record]]
compound = "COc1ccc(-c2cccc3c2CCN(c2nc4cc(OC)c(OC)cc4c(=O)[nH]2)C3)cc1"
tested_target = "alpha-1B adrenoceptor (Homo sapiens)"
result = "0.741 nM"

[[record]]
compound = "COc1cc2c(cc1OC)CN(C1=Nc3cc(OC)c(OC)cc3S(=O)(=O)N1)CC2"
tested_target = "alpha-1B adrenoceptor (Homo sapiens)"
result = "7.08 nM"

[[record]]
compound = "COc1ccc(-n2cnc3c2CCN(c2nc4cc(OC)c(OC)cc4c(=O)[nH]2)C3)cc1"
tested_target = "alpha-1B adrenoceptor (Homo sapiens)"
result = "5.89 nM"

[[record]]
compound = "COc1cc2nc(N3CCc4c(cccc4-c4cccnc4)C3)[nH]c(=O)c2cc1OC"
tested_target = "alpha-1B adrenoceptor (Homo sapiens)"
result = "2.04 nM"

[[record]]
compound = "COc1cc2nc(N3CCc4c(cccc4N=CN(C)C)C3)[nH]c(=O)c2cc1OC"
tested_target = "alpha-1B adrenoceptor (Homo sapiens)"
result = "4.47 nM"

[[record]]
compound = "COCCN(C)c1ncnc2c1CCN(c1nc3cc(OC)c(OC)cc3c(=O)[nH]1)C2"
tested_target = "alpha-1B adrenoceptor (Homo sapiens)"
result = "5.01 nM"


Source: patent EP1363899B1
